Target Desc: PI3K alpha (Homo sapiens)
Construct: p85(iSH2) fusion partner (see partner chain) (N); His tag (C); Tn5 (Trichoplusia ni) or TiniPro insect cells
Sequence (P42336 with tags, fused parts or gaps limits assumed): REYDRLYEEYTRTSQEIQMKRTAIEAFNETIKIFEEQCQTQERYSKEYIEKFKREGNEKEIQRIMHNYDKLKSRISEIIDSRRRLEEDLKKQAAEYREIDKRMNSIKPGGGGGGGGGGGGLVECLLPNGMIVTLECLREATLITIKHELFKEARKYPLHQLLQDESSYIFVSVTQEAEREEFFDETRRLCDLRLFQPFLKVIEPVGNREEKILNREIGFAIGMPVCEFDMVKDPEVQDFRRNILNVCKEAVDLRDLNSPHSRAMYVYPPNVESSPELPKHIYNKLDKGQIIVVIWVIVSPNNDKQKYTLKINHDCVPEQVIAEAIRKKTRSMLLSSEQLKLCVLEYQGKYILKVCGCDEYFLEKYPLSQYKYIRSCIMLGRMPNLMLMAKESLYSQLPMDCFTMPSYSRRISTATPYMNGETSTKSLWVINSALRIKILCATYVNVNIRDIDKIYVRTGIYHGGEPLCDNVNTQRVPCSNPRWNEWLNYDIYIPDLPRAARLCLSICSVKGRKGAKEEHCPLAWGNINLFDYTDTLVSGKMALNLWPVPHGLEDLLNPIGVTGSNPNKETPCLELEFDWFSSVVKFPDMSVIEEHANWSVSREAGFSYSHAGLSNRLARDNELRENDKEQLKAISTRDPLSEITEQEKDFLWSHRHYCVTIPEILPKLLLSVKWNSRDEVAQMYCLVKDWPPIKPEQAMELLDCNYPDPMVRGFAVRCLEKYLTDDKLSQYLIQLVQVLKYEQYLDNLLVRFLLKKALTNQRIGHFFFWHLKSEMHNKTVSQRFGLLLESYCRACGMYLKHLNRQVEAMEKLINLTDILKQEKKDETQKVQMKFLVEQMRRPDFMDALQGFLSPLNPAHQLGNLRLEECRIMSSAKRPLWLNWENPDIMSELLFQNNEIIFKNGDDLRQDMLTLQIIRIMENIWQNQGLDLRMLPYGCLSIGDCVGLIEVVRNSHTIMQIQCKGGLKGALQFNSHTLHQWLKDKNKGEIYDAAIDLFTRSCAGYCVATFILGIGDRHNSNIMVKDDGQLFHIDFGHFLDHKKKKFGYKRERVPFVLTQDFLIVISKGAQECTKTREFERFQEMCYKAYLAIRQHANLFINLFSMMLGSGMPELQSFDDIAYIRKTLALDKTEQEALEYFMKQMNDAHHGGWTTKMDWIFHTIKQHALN
Test: PI3K alpha kinase assay (Kinase-Glo luminescence)

[
  {
    "Molecular String": "Cc1nn(C(C)C)cc1-n1c(=O)n(C)c2cnc3ccc(-c4cncc(C(C)(C)O)c4)cc3c21",
    "Target Desc": "PI3K alpha (Homo sapiens)",
    "IC50 / nM": 12
  },
  {
    "Molecular String": "COc1ccc(-c2ccc3ncc4c(c3c2)n(-c2cn(C)nc2C)c(=S)n4C)cc1OC",
    "Target Desc": "PI3K alpha (Homo sapiens)",
    "IC50 / nM": 11
  },
  {
    "Molecular String": "CCOc1ccc(-c2ccc3ncc4c(c3c2)n(-c2c(C)nn(C)c2C)c(=O)n4C)cc1OCC",
    "Target Desc": "PI3K alpha (Homo sapiens)",
    "IC50 / nM": 48
  },
  {
    "Molecular String": "CN(C)c1ncc(-c2ccc3ncc4c(c3c2)n(-c2cn(C)nc2Cl)c(=O)n4C)cn1",
    "Target Desc": "PI3K alpha (Homo sapiens)",
    "IC50 / nM": 8
  },
  {
    "Molecular String": "COCCNC(=O)c1cc(-c2ccc3ncc4c(c3c2)n(-c2cn(C)nc2C)c(=O)n4C)cnc1N",
    "Target Desc": "PI3K alpha (Homo sapiens)",
    "IC50 / nM": 33
  },
  {
    "Molecular String": "CCn1cc(-n2c(=O)n(C)c3cnc4ccc(-c5ccc(N(C)C)nc5)cc4c32)c(C)n1",
    "Target Desc": "PI3K alpha (Homo sapiens)",
    "IC50 / nM": 15
  },
  {
    "Molecular String": "CCN(C)C(=O)Cn1cc(-n2c(=O)n(C)c3cnc4ccc(-c5cncc(OC(C)C)c5)cc4c32)c(C)n1",
    "Target Desc": "PI3K alpha (Homo sapiens)",
    "IC50 / nM": 7
  },
  {
    "Molecular String": "CCOc1ccc(-c2ccc3ncc4c(c3c2)n(-c2cn(CCO)nc2C)c(=O)n4C)cn1",
    "Target Desc": "PI3K alpha (Homo sapiens)",
    "IC50 / nM": 42
  },
  {
    "Molecular String": "COc1cc(-c2ccc3ncc4c(c3c2)n(-c2cn(C)nc2C)c(=O)n4C)cnc1CO",
    "Target Desc": "PI3K alpha (Homo sapiens)",
    "IC50 / nM": 19
  },
  {
    "Molecular String": "COc1ncc(-c2ccc3ncc4c(c3c2)n(-c2cn(C)nc2C)c(=O)n4C)cc1N(C)C(C)=O",
    "Target Desc": "PI3K alpha (Homo sapiens)",
    "IC50 / nM": 61
  },
  {
    "Molecular String": "Cc1nn(C)cc1-n1c(=O)n(C)c2cnc3ccc(-c4cccc(S(=O)(=O)N5CCCC5)c4)cc3c21",
    "Target Desc": "PI3K alpha (Homo sapiens)",
    "IC50 / nM": 70
  },
  {
    "Molecular String": "CCNc1cc(-c2ccc3ncc4c(c3c2)n(-c2cn(C)nc2Cl)c(=O)n4C)cnc1OC",
    "Target Desc": "PI3K alpha (Homo sapiens)",
    "IC50 / nM": 43
  },
  {
    "Molecular String": "Cn1cc(-n2c(=O)n(C)c3cnc4ccc(-c5cnc(N)c(CO)c5)cc4c32)c(Cl)n1",
    "Target Desc": "PI3K alpha (Homo sapiens)",
    "IC50 / nM": 5
  },
  {
    "Molecular String": "CCn1cc(-n2c(=O)n(C)c3cnc4ccc(-c5ccc(OCCOC)c(OC)c5)cc4c32)c(C)n1",
    "Target Desc": "PI3K alpha (Homo sapiens)",
    "IC50 / nM": 30
  },
  {
    "Molecular String": "COCCOc1cc(-c2ccc3ncc4c(c3c2)n(-c2cn(C)nc2C)c(=O)n4C)cnc1C",
    "Target Desc": "PI3K alpha (Homo sapiens)",
    "IC50 / nM": 9
  },
  {
    "Molecular String": "Cc1nn(C)c(C)c1-n1c(=O)n(C)c2cnc3ccc(-c4cnc(N)c(Cl)c4)cc3c21",
    "Target Desc": "PI3K alpha (Homo sapiens)",
    "IC50 / nM": 26
  },
  {
    "Molecular String": "Cc1nn(C(C)C)cc1-n1c(=O)n(C)c2cnc3ccc(-c4cncc(C(O)(CF)CF)c4)cc3c21",
    "Target Desc": "PI3K alpha (Homo sapiens)",
    "IC50 / nM": 12
  },
  {
    "Molecular String": "CNc1ncc(-c2ccc3ncc4c(c3c2)n(-c2cn(C)nc2C)c(=O)n4C)cc1C(F)(F)F",
    "Target Desc": "PI3K alpha (Homo sapiens)",
    "IC50 / nM": 10
  },
  {
    "Molecular String": "CNC(=O)c1cc(-c2ccc3ncc4c(c3c2)n(-c2cn(C)nc2C)c(=O)n4C)cnc1N",
    "Target Desc": "PI3K alpha (Homo sapiens)",
    "IC50 / nM": 15
  },
  {
    "Molecular String": "CC(=O)NCc1cncc(-c2ccc3ncc4c(c3c2)n(-c2cn(C)nc2C)c(=O)n4C)c1",
    "Target Desc": "PI3K alpha (Homo sapiens)",
    "IC50 / nM": 405
  },
  {
    "Molecular String": "Cc1nn(C)cc1-n1c(=O)n(C)c2cnc3ccc(-c4cncc(OCCF)c4)cc3c21",
    "Target Desc": "PI3K alpha (Homo sapiens)",
    "IC50 / nM": 12
  },
  {
    "Molecular String": "CCn1cc(-n2c(=O)n(C)c3cnc4ccc(-c5cnc(NC)nc5OC)cc4c32)c(C)n1",
    "Target Desc": "PI3K alpha (Homo sapiens)",
    "IC50 / nM": 15
  },
  {
    "Molecular String": "COc1ncc(-c2ccc3ncc4c(c3c2)n(-c2cn(C)nc2C)c(=O)n4C)cc1C(=O)O",
    "Target Desc": "PI3K alpha (Homo sapiens)",
    "IC50 / nM": 37
  },
  {
    "Molecular String": "CCOc1cncc(-c2ccc3ncc4c(c3c2)n(-c2cn(C)nc2Cl)c(=O)n4C)c1",
    "Target Desc": "PI3K alpha (Homo sapiens)",
    "IC50 / nM": 5
  },
  {
    "Molecular String": "CNc1ccc(-c2ccc3ncc4c(c3c2)n(-c2cn(C(C)C)nc2C)c(=O)n4C)cn1",
    "Target Desc": "PI3K alpha (Homo sapiens)",
    "IC50 / nM": 26
  },
  {
    "Molecular String": "COc1ncc(-c2ccc3ncc4c(c3c2)n(-c2cn(C)nc2Cl)c(=O)n4C)cn1",
    "Target Desc": "PI3K alpha (Homo sapiens)",
    "IC50 / nM": 9
  },
  {
    "Molecular String": "CCOc1cncc(-c2ccc3ncc4c(c3c2)n(-c2c(C)nn(C)c2C)c(=O)n4C)c1",
    "Target Desc": "PI3K alpha (Homo sapiens)",
    "IC50 / nM": 82
  },
  {
    "Molecular String": "COc1ccc(-c2ccc3ncc4c(c3c2)n(-c2ccnn2C)c(=O)n4C)cc1OC",
    "Target Desc": "PI3K alpha (Homo sapiens)",
    "IC50 / nM": 14
  },
  {
    "Molecular String": "CCNc1ncc(-c2ccc3ncc4c(c3c2)n(-c2c(C)nn(C)c2C)c(=O)n4C)cc1C(F)(F)F",
    "Target Desc": "PI3K alpha (Homo sapiens)",
    "IC50 / nM": 42
  },
  {
    "Molecular String": "Cc1nn(C)cc1-n1c(=O)n(C)c2cnc3ccc(-c4cncc(NC5CCC5)c4)cc3c21",
    "Target Desc": "PI3K alpha (Homo sapiens)",
    "IC50 / nM": 39
  },
  {
    "Molecular String": "Cn1cc(-n2c(=O)n(C)c3cnc4ccc(-c5cncc(C(C)(C)C#N)c5)cc4c32)c(Cl)n1",
    "Target Desc": "PI3K alpha (Homo sapiens)",
    "IC50 / nM": 5
  }
]

---

Reported solubility values for the following compounds.
Test: Solubility at pH 6.8
Assay type: physicochemical
Assay Setup: pH 6.8, aqueous buffer, thermodynamic from solid; read-out: solubility

[
  {
    "Molecular String": "Cc1ncc(-c2ccc3ncc4c(c3c2)n(-c2cn(C)nc2C)c(=O)n4C)cc1O",
    "Unit Name": "µg/mL",
    "Value Modifier": "=",
    "solubility": 17
  },
  {
    "Molecular String": "Cc1nn(C)cc1-n1c(=O)n(C)c2cnc3ccc(-c4ccc(-c5nn[nH]n5)nc4)cc3c21",
    "Unit Name": "µg/mL",
    "Value Modifier": "=",
    "solubility": 65
  },
  {
    "Molecular String": "CNc1ccc(-c2ccc3ncc4c(c3c2)n(-c2cn(C(C)C)nc2C)c(=O)n4C)cn1",
    "Unit Name": "µg/mL",
    "Value Modifier": "=",
    "solubility": 3
  },
  {
    "Molecular String": "Cc1ncc(-c2ccc3ncc4c(c3c2)n(-c2cn(C)nc2Cl)c(=O)n4C)cc1N",
    "Unit Name": "µg/mL",
    "Value Modifier": "=",
    "solubility": 3
  },
  {
    "Molecular String": "CCNC(=O)c1cc(-c2ccc3ncc4c(c3c2)n(-c2cn(C)nc2C)c(=O)n4C)cnc1NC",
    "Unit Name": "µg/mL",
    "Value Modifier": "=",
    "solubility": 5
  },
  {
    "Molecular String": "CCN(C)C(=O)Cn1cc(-n2c(=O)n(C)c3cnc4ccc(-c5cncc(OC(C)C)c5)cc4c32)c(C)n1",
    "Unit Name": "µg/mL",
    "Value Modifier": "=",
    "solubility": 466
  },
  {
    "Molecular String": "COCc1cc(-c2ccc3ncc4c(c3c2)n(-c2cn(C)nc2Cl)c(=O)n4C)cnc1N",
    "Unit Name": "µg/mL",
    "Value Modifier": "=",
    "solubility": 14
  },
  {
    "Molecular String": "Cc1nn(C)cc1-n1c(=O)n(C)c2cnc3ccc(-c4cncc(N)c4)cc3c21",
    "Unit Name": "µg/mL",
    "Value Modifier": ">",
    "solubility": 385
  }
]
